Target: Rap guanine nucleotide exchange factor 3 (Homo sapiens) (UniProt O95398)
Sequence (O95398 whole entry, looked up): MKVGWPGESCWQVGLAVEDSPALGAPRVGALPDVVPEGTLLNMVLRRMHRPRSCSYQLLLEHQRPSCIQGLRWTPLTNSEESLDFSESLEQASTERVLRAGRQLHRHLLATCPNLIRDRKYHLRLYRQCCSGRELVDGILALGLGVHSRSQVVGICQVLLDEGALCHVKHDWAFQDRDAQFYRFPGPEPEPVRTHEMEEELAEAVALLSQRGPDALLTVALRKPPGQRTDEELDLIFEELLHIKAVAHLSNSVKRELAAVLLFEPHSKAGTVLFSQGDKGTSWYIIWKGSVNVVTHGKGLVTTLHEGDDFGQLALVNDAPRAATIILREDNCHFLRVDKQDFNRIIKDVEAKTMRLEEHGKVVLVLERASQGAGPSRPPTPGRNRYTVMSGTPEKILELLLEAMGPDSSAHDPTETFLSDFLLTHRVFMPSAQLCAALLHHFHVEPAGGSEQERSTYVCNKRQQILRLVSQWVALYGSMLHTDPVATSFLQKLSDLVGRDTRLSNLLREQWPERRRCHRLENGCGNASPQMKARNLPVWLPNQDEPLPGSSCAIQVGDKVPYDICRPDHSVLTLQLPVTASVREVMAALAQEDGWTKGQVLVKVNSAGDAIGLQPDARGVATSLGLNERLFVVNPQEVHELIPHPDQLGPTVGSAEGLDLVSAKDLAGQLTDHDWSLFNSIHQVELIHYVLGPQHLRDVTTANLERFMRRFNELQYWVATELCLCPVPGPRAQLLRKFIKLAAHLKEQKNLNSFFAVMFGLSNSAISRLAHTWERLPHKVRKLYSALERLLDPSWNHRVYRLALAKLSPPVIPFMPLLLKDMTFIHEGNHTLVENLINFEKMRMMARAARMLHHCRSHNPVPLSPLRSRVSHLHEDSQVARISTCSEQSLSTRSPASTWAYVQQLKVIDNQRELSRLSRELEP
Assay: Counterscreen qHTS for antagonist of cAMP-regulated guanine nucleotide exchange factor 3 (EPAC1) (AID 1645888);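 further: fluorescence loss as bound BODIPY-GDP is released from Rap1B; % of control where 0% means no effect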
Details: Rap1B-BODIPY-GDP nucleotide exchange, fluorescence; series mostly up to 154 µM
Source text: Assay Provider (PI): Xiaodong Cheng Ph.D. The University of Texas Medical Branch, […], TX MLPCN Grant: NS066510 In multi-cellular eukaryotic organisms, the effects of cAMP are transduced by two ubiquitously-expressed intracellular cAMP receptors, the classic protein kinase A/cAMP-dependent protein kinase (PKA/cAPK) and the more recently discovered exchange protein directly activated by cAMP/cAMP-regulated guanine nucleotide exchange factor (EPAC/cAMP-GEF). […]
Results filed as inconclusive are left out. Activity calls are given as the source filed them. The call rests on the fitted dose curve; in most records, active means well fitted inhibition curve with a large enough effect; inconclusive means small, poorly fitted or top-dose-only effect; inactive means no such curve, though single readings can be large or run the other way.
ASSAY ENDPOINT: activity change, negative = inhibition

// below: answered compounds
* Cc1ccccc1OCCC(=O)OCC(=O)N1CCN(S(=O)(=O)c2ccc(Cl)cc2)CC1 | -4.15% [at 30.8 µM] (inactive)
* CCC(C(=O)OCC(=O)Nc1cc(C)ccc1OC)c1ccccc1 (configuration not stated) | -13% [at 30.8 µM] (inactive)
* Cc1cscc1-c1ccc(C(=O)Nc2c(C)cccc2C)o1 | -5.01% [at 30.8 µM] (inactive)
* CC(=O)C1=C(O)C(=O)N(c2cccc(Br)c2)C1c1ccc(Br)cc1 (configuration not stated) | inactive
* Cc1ccc2nc(-c3ccccc3)c(Cc3ccccc3C(F)(F)F)n2c1 | inactive
* NNc1nc2c(Cl)ccc(Cl)c2s1 | inactive
* C(=N\N1CCN(C(c2ccccc2)c2ccccc2)CC1)/c1ccc2c(c1)OCO2 | inactive
* Cc1ccc(CN2C(=O)CSC2c2ccccc2F)cc1 (configuration not stated) | inactive
* COC(=O)c1ccc(N2C(=O)CC(N3CCOCC3)C2=O)cc1 (configuration not stated) | 6.34% [at 30.8 µM] (inactive)
* O=C(Nc1cccc(Cl)c1)C1CCCN(C2=NS(=O)(=O)c3ccccc32)C1 (configuration not stated) | inactive

Query compound follows.
State measured activity change, negative = inhibition of the compound N=C1/C(=C\c2ccc(OC(=O)c3ccccc3Cl)cc2)C(=O)N=C2SC(N3CCOCC3)=NN12 with Rap guanine nucleotide exchange factor 3 (Homo sapiens) (UniProt O95398). inactive

----------
assay: qHTS drug screen for cell cycle checkpoint inhibitors in PARPi-resistant BRCA-mutant ovarian cancer cell lines. (AID 1963452); settings: PEO1/OlaR viability, CellTiter-Glo luminescence, 96 h; measured here: PEO1 parental Z-AUC; stronger effect = lower value
Label 1.0 when Z-AUC < 0.03; otherwise 0.0.

Study these solved cases before continuing.
• CCN1C(=O)N2Cc3cc(OC)cc(OC)c3[C@@H](C)C=C2C12CCN(Cc1cc(C)cc(C)c1)CC2 = 1.0
• C/C=C/C[C@@H](C)C(=O)[C@H]1C(=O)N[C@@H](C(C)C)C(=O)N(C)CC(=O)N(C)[C@@H](CC(C)C)C(=O)N[C@@H](C(C)C)C(=O)N(C)[C@@H](CC(C)C)C(=O)N[C@@H](C)C(=O)N[C@H](C)C(=O)N(C)[C@@H](CC(C)C)C(=O)N(C)[C@@H](CC(C)C)C(=O)N(C)[C@@H](C(C)C)C(=O)N1C = 1.0
• Cc1ccc(Sc2ccccc2N2CCNCC2)c(C)c1 = 1.0
• C[C@]12CCCN1CC1=NNC(=O)c3cc(F)cc4[nH]c2c1c34 = 1.0
• Cc1cc(Nc2ncnc3ccc(NC4=NC(C)(C)CO4)cc23)ccc1Oc1ccn2ncnc2c1 = 1.0
• CCOC(=O)C1=CCCCC1S(=O)(=O)Nc1ccc(F)cc1Cl (configuration not stated) = 0.0

Query molecule follows.
Check if Z-AUC falls below 0.03 for CC(C)(C)C[C@H]1N[C@@H](C(=O)NC2CCC(O)CC2)[C@H](c2cccc(Cl)c2F)[C@@]12C(=O)Nc1cc(Cl)ccc12 (some centres not stated) . 0.0
